A collection of molecules and their measured z-score
# assay.name: budding yeast growth changes without added modifier – OD600, strain BY4716, 24 h, basal condition, primary screen (AID 1173)
# stated.conditions: S. cerevisiae BY4716 growth, OD600, 24 h; higher = more signal, called active from +8 up or from −8 down
assay.endpoint: z-score

molecule: COC(=O)[C@]1(Cc2ccccc2CN=[N+]=[N-])N=C(c2ccc(OCCCO)cc2)O[C@@H]1c1ccccc1CN=[N+]=[N-]
numeric.readout: 0.803

molecule: COc1ccc(C#Cc2ccc3c(c2)[C@]2(C(=O)N3)[C@H](c3ccc(OCCO)cc3)N3[C@H](c4ccccc4)[C@H](c4ccccc4)OC(=O)[C@H]3[C@@H]2C(=O)N2CCN(c3ncccn3)CC2)cc1
numeric.readout: 1.56

molecule: C=CCC(OC(C)=O)[C@@H]1[C@@H](N(Cc2cccc3ccccc23)C(=O)Cc2ccc(F)cc2)c2cc(OCCCO)ccc2N1C(=O)Cc1ccc(OC)cc1 (stereo partly specified)
numeric.readout: -1.61

molecule: COc1ccc([Si](C)(C)[C@@H]2[C@@H](CCO)O[C@]3(C(=O)N(Cc4ccc(N5C(=O)c6ccccc6Oc6ccccc65)cc4)c4ccccc43)[C@H]2C)cc1
numeric.readout: 2.15

molecule: C=CCC(OC(C)=O)[C@@H]1[C@@H](N(Cc2ccc(-c3ccccc3)cc2)C(=O)c2cccc3ccccc23)c2cc(OCCCO)ccc2N1C(=O)c1ccc2ccccc2n1 (stereo partly specified)
numeric.readout: -0.953

molecule: CN1C(=O)C2C=CC(C(O)COCc3ccccc3)N(Nc3ccccc3)C2C1=O (stereo unspecified)
numeric.readout: -0.396

---

# system.name: Carbonic anhydrase 2 (Homo sapiens) (UniProt P00918)
# assay.name: compounds binding carbonic anhydrase 2 – biochemical, small-molecule microarray, Alexa647-labelled CAII, profiling panel (AID 1122)
# stated.conditions: CAII-A647 binding fluorescence, higher = more signal
Returns one of label 1 or label 0; label 1 when composite z-score is >= 0.4.

compound: COCCCNC(=O)[C@]1(CCS(=O)(=O)c2ccccc2)N=C(c2ccc(OCCCO)cc2)O[C@@H]1c1ccccc1
system.name: Carbonic anhydrase 2 (Homo sapiens) (UniProt P00918)
category: label 1
--
compound: COc1cc(C(O)C2C=CC3C(=O)N(C)C(=O)C3N2NC(=O)OC(C)(C)C)cc(OC)c1OC (centres undefined)
system.name: Carbonic anhydrase 2 (Homo sapiens) (UniProt P00918)
category: label 1
--
compound: COc1ccc([Si](C)(C)[C@@H]2[C@@H](CC(=O)N(CCO)Cc3ccccc3)O[C@]3(C(=O)N(C)c4c(Br)cc(C)cc43)[C@H]2C)cc1
system.name: Carbonic anhydrase 2 (Homo sapiens) (UniProt P00918)
category: label 0
--
compound: [N-]=[N+]=NCc1ccccc1C[C@]1(C(=O)NCCN2CCOCC2)COC(c2ccc(OCCCO)cc2)=N1
system.name: Carbonic anhydrase 2 (Homo sapiens) (UniProt P00918)
category: label 0
--
compound: COCCOC(=O)N1C(=O)[C@@]2(c3cc(C#CCCO)ccc31)[C@H](C(=O)NC[C@H](O)c1ccccc1)[C@H]1C(=O)O[C@H](c3ccccc3)[C@H](c3ccccc3)N1[C@@H]2c1ccccc1OCCO
system.name: Carbonic anhydrase 2 (Homo sapiens) (UniProt P00918)
category: label 0
--
compound: O=C(Nc1cc(Br)ccc1C(=O)NCc1cccc(O)c1)c1ccccc1
system.name: Carbonic anhydrase 2 (Homo sapiens) (UniProt P00918)
category: label 1
--
compound: CC(C)CN1C(=O)[C@@]2(Cc3ccccc31)c1ccccc1C(=O)N(Cc1ccccc1)[C@H]2c1ccc(CO)cc1
system.name: Carbonic anhydrase 2 (Homo sapiens) (UniProt P00918)
category: label 1
--
compound: C=CCC(OC(C)=O)[C@@H]1[C@@H](N(Cc2ccc(-c3ccccc3)cc2)C(=O)Cc2ccc(OC)cc2)c2cc(OCCCO)ccc2N1C(=O)c1ccc(-c2ccccc2)cc1 (some centres undefined)
system.name: Carbonic anhydrase 2 (Homo sapiens) (UniProt P00918)
category: label 0
--
compound: C[C@]12C(=O)N(CCCCCO)[C@@H]3C(=O)N(c4ccc(Cl)cc4)CC=CC31O[C@@H]1/C=C\CCCOC(=O)C12 (some centres undefined)
system.name: Carbonic anhydrase 2 (Homo sapiens) (UniProt P00918)
category: label 0
--
compound: C=CCN1C(=O)[C@@]2(O[C@@H](CCO)[C@H]([Si](C)(C)c3ccc(OC)cc3)[C@H]2C)c2cc(NC(=O)[C@H](C)O)ccc21
system.name: Carbonic anhydrase 2 (Homo sapiens) (UniProt P00918)
category: label 1
--
compound: CCOC(=O)C[C@H]1[C@H](OC(=O)c2ccccc2-c2ccccc2)[C@@H](NC(=O)c2ccccc2)c2cc(OCCCO)ccc2N1C(=O)Cc1ccc(OC)cc1
system.name: Carbonic anhydrase 2 (Homo sapiens) (UniProt P00918)
category: label 0
--
compound: C[N+](C)(C)CCCCCCNC(=O)[C@@H]1C[C@@H]2C(=O)NCC(=O)N2[C@@H]1c1cccc(OCCO)c1
system.name: Carbonic anhydrase 2 (Homo sapiens) (UniProt P00918)
category: label 1
--
compound: COCCOC(=O)N1C(=O)[C@@]2(c3cc(C#CCCO)ccc31)[C@H](C(=O)N1CCc3cc(OC)c(OC)cc3C1)[C@H]1C(=O)O[C@H](c3ccccc3)[C@H](c3ccccc3)N1[C@@H]2c1ccc(OCCO)cc1
system.name: Carbonic anhydrase 2 (Homo sapiens) (UniProt P00918)
category: label 1
--
compound: Cc1ccc(S[C@]2(C(=O)O)CC(=O)N(Cc3ccccc3C(F)(F)F)[C@@H]2c2ccc(CO)cc2)cc1
system.name: Carbonic anhydrase 2 (Homo sapiens) (UniProt P00918)
category: label 1
--
compound: C=C(C)[C@@H]1CC=C(C(O)C2C=CC3C(=O)N(C4CCCCC4)C(=O)C3N2Nc2ccc(OC)cc2)CC1 (some centres undefined)
system.name: Carbonic anhydrase 2 (Homo sapiens) (UniProt P00918)
category: label 1
--
compound: CCCCCCCCCCC(O)C1C=CC2C(=O)NC(=O)C2N1Nc1ccccn1 (centres undefined)
system.name: Carbonic anhydrase 2 (Homo sapiens) (UniProt P00918)
category: label 0
--
compound: O=C1c2ccccc2C(=O)C2CC([C@H]3Oc4ccccc4S(=O)(=O)N4CCC[C@@H]34)=CCC12 (some centres undefined)
system.name: Carbonic anhydrase 2 (Homo sapiens) (UniProt P00918)
category: label 0
--
compound: O=C1N(Cc2ccccc2)c2ccccc2[C@H]2OC(c3ccc(OCCCO)cc3)=N[C@@]12CCS(=O)(=O)c1ccccc1
system.name: Carbonic anhydrase 2 (Homo sapiens) (UniProt P00918)
category: label 1
--
compound: O=C(NCc1ccccc1)[C@]1(Cc2ccccc2)N=C(c2ccc(OCCCO)cc2)O[C@@H]1c1ccccc1
system.name: Carbonic anhydrase 2 (Homo sapiens) (UniProt P00918)
category: label 1
--
compound: CN(C)C(=O)[C@@]1(CCC(=O)OC(C)(C)C)N=C(c2ccc(OCCCO)cc2)O[C@H]1c1ccccc1N=[N+]=[N-]
system.name: Carbonic anhydrase 2 (Homo sapiens) (UniProt P00918)
category: label 1
--
compound: CCOC(=O)C1=CC[C@@H](c2cccc(Br)c2)N(S(=O)(=O)c2ccc(C)cc2)[C@H]1c1ccc([N+](=O)[O-])cc1
system.name: Carbonic anhydrase 2 (Homo sapiens) (UniProt P00918)
category: label 1
--
compound: CCC[C@@H]1C[C@@]1(CCC)[C@@H](NC(=O)c1cccs1)c1ccc(Cl)cc1
system.name: Carbonic anhydrase 2 (Homo sapiens) (UniProt P00918)
category: label 0
--
compound: CC1CC/C=C\[C@H]2OC34C=CCN(Cc5ccccc5)C(=O)[C@H]3N(CCO)C(=O)[C@@H]4C2C(=O)O1 (some centres undefined)
system.name: Carbonic anhydrase 2 (Homo sapiens) (UniProt P00918)
category: label 1
--
compound: CCOC(=O)C[C@H]1[C@H](OC(=O)c2cc3ccccc3oc2=O)[C@@H](NC(=O)c2ccc3ccccc3n2)c2cc(OCCCO)ccc2N1C(=O)c1ccc2ccccc2n1
system.name: Carbonic anhydrase 2 (Homo sapiens) (UniProt P00918)
category: label 0
--
compound: COC(=O)[C@@]1(Cc2ccccc2)[C@H]2c3cc(C(=O)N(C)C)n(Cc4ccccn4)c3C[C@H]2CN1C(=O)c1ccccc1
system.name: Carbonic anhydrase 2 (Homo sapiens) (UniProt P00918)
category: label 1
--
compound: CC(C)(C)OC(=O)CC[C@]1(C(=O)O)COC(c2ccc(OCCCO)cc2)=N1
system.name: Carbonic anhydrase 2 (Homo sapiens) (UniProt P00918)
category: label 1
--
compound: C=CCOC(=O)[C@@H]1[C@H]2C(=O)O[C@H](c3ccccc3)[C@H](c3ccccc3)N2[C@H](c2ccc(OCCOC(=O)[C@H]3C[C@H]4C(=O)N[C@@H](Cc5ccccc5)C(=O)N4[C@H]3c3cccc(OCCO)c3)cc2)[C@@]12C(=O)Nc1ccc(I)cc12
system.name: Carbonic anhydrase 2 (Homo sapiens) (UniProt P00918)
category: label 0
--
compound: COC(=O)c1c(CC[C@@H](CO)NC(=O)N[C@@H](C)Cn2cc(C3(O)CCCC3)nn2)oc(C(C)=O)c1C(=O)OC
system.name: Carbonic anhydrase 2 (Homo sapiens) (UniProt P00918)
category: label 1
--
compound: CCCCC(O)C1C=CC2C(=O)N(Cc3ccccc3)C(=O)C2N1n1cnnc1 (centres undefined)
system.name: Carbonic anhydrase 2 (Homo sapiens) (UniProt P00918)
category: label 1
